assay_summary: qHTS RealTime-Glo MT Cell Viability Assay in HEK293 cells - 16 hour (AID 1224872); also: nearly all actives have a fitted effect of over 50% in size
measurement_conditions: RealTime-Glo luminescence; series mostly up to 76.8 µM
Records with an inconclusive call do not appear. Calls of active or inactive are those of the source. Calls follow the shape of the dose curve; as a rule, active = well fitted cell-killing curve with a large enough effect in the repeat runs; inconclusive = weak or mixed curves, or effect the other way; inactive = flat fitted curve, though single readings scatter.
Please state which outcome applies, choosing from True (active), False (inactive)

Called result for O=C(NC1CCN(CCc2c[nH]c3ccccc23)CC1)c1ccccc1
True

Dear all, I need the recorded test outcome for COc1cc(CNC(=O)CCCC/C=C/C(C)C)ccc1O , thank you.
True

Just curious, what result did O=C1CCCN1CCO get here?
False

Assay result, entry CCC[Si](OC)(OC)OC — outcome?
False

Which outcome did this test record for the molecule CC(CCl)OC(C)CCl (stereo not drawn) ?
False

Which outcome did this test record for the molecule O=C(Cl)c1cc(Cl)cc(Cl)c1 ?
False

Each molecule tested received a call. Report the one for Nc1ncnc2c1ncn2[C@@H]1O[C@H](CO)[C@@H](O)[C@H]1O .
False

Please let me know the test result on file for CCCCCCCCCCCCSC#N .
False

Write down the call the test reported for this molecule. Item: CCCC(=O)OCc1ccccc1
False

Hi, do you know how Cc1ccc(NC=O)c(C)c1 came out in this test?
False

Outcome logged for CC[C@H](NC(C)C)[C@H](O)c1ccc(O)c2[nH]c(=O)ccc12 in this assay:
False

How did this test come out for C[C@H]1C[C@H]2[C@@H]3CCC4=CC(=O)C=C[C@]4(C)[C@@]3(F)[C@@H](O)C[C@]2(C)[C@@]1(O)C(=O)COP(=O)(O)O ?
False

I would be grateful if you could indicate the recorded call for CC(C)=CCC[C@H](C)CCO .
False

Dear all, I need the recorded test outcome for CCCCCCCCOCCCN , thank you.
False

What outcome does the record of this test show for O=C(c1ccc(Cl)cc1)c1ccc(Cl)cc1 ?
False

# outcome recorded in this test, key = [O-][n+]1ccc(Cl)cc1
False

Per the assay record, what outcome was assigned to CC(C)(C)N ?
False

What did the test return for CCN(CC)CC(=O)OCC(=O)[C@@]1(O)CC[C@H]2[C@@H]3CCC4=CC(=O)CC[C@]4(C)[C@H]3[C@@H](O)C[C@@]21C ?
False

What was the test verdict on CC/C=C\CCO ?
False

// return assay outcome for OCCOc1cccc(OCCO)c1
False

Outcome logged for CCC(CC)C(=O)O in this assay:
False

Please let me know the test result on file for O=C(O)c1cccc(C(=O)O)c1C(=O)O .
False

I'd appreciate the recorded outcome for O=C(OC1C[C@H]2CC[C@@H](C1)[N+]21CCCC1)C(O)(c1ccccc1)c1ccccc1 (stereo partly drawn) from this test.
False

Please state the recorded outcome for this molecule: O=Cc1ccc(Cl)c([N+](=O)[O-])c1
False

What outcome does the record of this test show for C=C[Si]1(C)O[Si](C)(C=C)O[Si](C)(C=C)O[Si](C)(C=C)O1 (stereo not drawn) ?
False

Hey, what did the test say about C/C=C1\[C@H]2C=C(C)C[C@]1(N)c1ccc(=O)[nH]c1C2 ?
False

Would you mind telling me which call this test gave CC(C)Cc1nccs1 ?
False

# lookup: test call for Cc1ccc(Cl)c(OCC(O)CNC(C)(C)C)c1 (stereo not drawn)
False

Could you please tell me the result logged for CCCC(=O)OCCC(C)C in this assay?
False

Called result for CCC(=O)O[C@]1(C(=O)COC)[C@@H](C)C[C@H]2[C@@H]3CCC4=CC(=O)C=C[C@]4(C)C3(F)[C@@H](O)C[C@@]21C (stereo partly drawn)
False

Just curious, what result did c1ccc(CCNc2nc(-c3ccccc3)cs2)cc1 get here?
False

Write down the call the test reported for this molecule. Item: CCCCCCCCCCCCCCCCN
False

# fetch the recorded call for CC(=O)Nc1ccn(C2COC(COC(=O)c3ccccc3)O2)c(=O)n1 (stereo not drawn) here
False

How did this test come out for CC(C)(O)C(=O)O ?
False

Would you mind telling me which call this test gave O=[N+]([O-])c1ccc(Cl)cc1Cl ?
False

What is the recorded call for this molecule in the test? Nc1nc(Cl)nc2c1ncn2[C@H]1C[C@H](O)[C@@H](CO)O1
False

Recorded call for CCCCCCCCC(=O)OCC(C)OC(=O)CCCCCCCC (stereo not drawn) ?
False

Recorded test call requested for CCCCC(CC)COCCC#N (stereo not drawn)
False

Record request — test call for CC(=O)OCC(=O)[C@@]1(O)CC[C@H]2[C@@H]3CCC4=CC(=O)C=C[C@]4(C)[C@@]3(F)[C@@H](O)C[C@@]21C
False

So what was the verdict on CCc1ccc(C(=O)C(C)CN2CCCCC2)cc1 (stereo not drawn) in this test?
False

What outcome does the record of this test show for O=C(N[C@@H](Cc1ccccc1)[C@@H](O)C(=O)N1C[C@@H](O)[C@@H](O)C1)c1cc2cc(Cl)ccc2[nH]1 ?
False

Recorded call for CC(Cc1ccccc1)(NC(=O)CN)c1ccccc1 (stereo not drawn) ?
False

// param item: Nc1cccc2c(=O)[nH][nH]c(=O)c12 ; yields the recorded call
False

* * *

experimental_target: Cytochrome P450 1A2 (Homo sapiens)
assay_summary: Cytochrome P450 Family 1 Subfamily A Member 2 (CYP1A2) small molecule antagonists: luciferase reporter qHTS assay (AID 1671199); also: nearly all actives have a fitted effect of over 50% in size
measurement_conditions: P450-Glo CYP1A2 enzyme, luciferin luminescence, 1 h; series mostly up to 115 µM
Inconclusive results are not listed. The source made the active and inactive calls. Calls come from the whole dose curve; as a rule, active = well fitted inhibition curve with a large enough effect in the repeat runs; inconclusive = weak or mixed curves; inactive = no such curve, though single readings can be large or run the other way.
Select the correct class. Options are yes (1) for active, no (0) for inactive and nothing else.

Each compound tested received a call. Report the one for Nc1ccc(F)cc1F .
no (0)

I would be grateful if you could indicate the recorded call for [O-][n+]1ccc(Cl)cc1 .
no (0)

Would you mind telling me which call this test gave O=Cc1ccc(Cl)c([N+](=O)[O-])c1 ?
yes (1)

Status in this test for O=c1c2ccccc2oc2ccccc12 ?
yes (1)

// return assay outcome for O=c1[nH][nH]c2ccccc12
yes (1)

Outcome? O=C(OCCCCCOC(=O)c1ccccc1)c1ccccc1
yes (1)

* * *

assay_summary: qHTS assay to identify small molecule agonists of the androgen receptor (AR) signaling pathway in the presence of an antagonist - cell viability counter screen (AID 1259379); also: nearly all actives have a fitted effect of over 25% in size
measurement_conditions: MDA-kb2 viability, CellTiter-Fluor, 16 h; series mostly up to 92.4 µM
Inconclusive results are not listed. Activity calls are given as the source filed them. Calls come from the whole dose curve; as a rule, active = well fitted cell-killing curve with a large enough effect in the repeat runs; inconclusive = weak or mixed curves, or effect the other way; inactive = flat fitted curve, though single readings scatter.
A correct response names exactly one class from 1 (active), -1 (inactive)

Outcome? CC1(C)C(=O)NC(=O)N1CO
-1

// return assay outcome for O=C(O)CNc1ccccc1
-1

What did this assay record as the result for COC(=O)Cc1cccc2ccccc12 ?
-1

Check the results log: what was the call for S=c1[nH][nH]c(=S)s1 ?
-1

# outcome recorded in this test, key = CCc1cnc(C(=O)O)c(C(=O)O)c1
-1

What call does the record list for Nc1ncnc2c1ncn2[C@@H]1O[C@H](CO)[C@@H](O)[C@H]1O ?
-1

Recorded test outcome, item C/C=C1\[C@H]2C=C(C)C[C@]1(N)c1ccc(=O)[nH]c1C2
-1

Identify the outcome logged in this assay for the molecule shown: C=C[Si](OCC)(OCC)OCC
-1

Check the results log: what was the call for CCC(C(=O)O)c1ccc(N2Cc3ccccc3C2=O)cc1 (stereo not drawn) ?
-1

State the result this test recorded for Cc1cccc(C)c1NC(=O)CN1CCCC1 .
-1

Hi team, can someone confirm the assay call for CNc1ccccc1 ?
-1

Hi team, can someone confirm the assay call for O=Cc1ccc(Cl)c([N+](=O)[O-])c1 ?
-1

How was O=C(O)COCC(=O)O classified in this test?
-1

Outcome logged for Cc1ccc(S(=O)(=O)NC(=O)NC2CCCC2)cc1 in this assay:
-1

# lookup: test call for O=C(c1ccco1)N1CCNCC1
-1

Name the outcome recorded for Cc1cc(C)n(CO)n1 in the assay.
-1

Record lookup: outcome of this test for CC(C)C/C=C(\C=O)c1ccccc1 ?
-1

How was COc1ccnc2c1CCCCC2S(=O)c1nc2ccccc2[nH]1 (stereo not drawn) classified in this test?
-1

Called result for Cc1ccc(NC(=O)c2ccc(CN3CCN(C)CC3)cc2)cc1Nc1nccc(-c2cccnc2)n1
-1

I would be grateful if you could indicate the recorded call for CC1(C)CC(=O)CC(C)(C)N1 .
-1

Given CC1(C)CC(O)CC(C)(C)N1[O] , state the outcome it received in this test.
-1

// outcome(item) with item = CCOc1ccc2c(c1)C(C)CC(C)(C)N2 (stereo not drawn)
-1

What did the test return for CCCC(=O)OCCC(C)C ?
-1

In this assay, the call recorded for CCOCCn1c(N2CCCN(C)CC2)nc2ccccc21 was what?
-1

Query: recorded result category for c1ccc(CN(Cc2ccccc2)Cc2ccccc2)cc1 in this test
-1

Answer briefly: the call reported for Clc1cc(Cl)c2c(c1)N=C1CCCCCN1C2 in this assay.
-1

Write down the call the test reported for this molecule. Item: O=c1[nH]nc(-c2ccc([N+](=O)[O-])o2)o1
1

Answer briefly: the call reported for [O-][n+]1ccc(Cl)cc1 in this assay.
-1

# lookup: test call for C=CC(C)(O)CC/C=C(/C)CCC=C(C)C (stereo not drawn)
-1

Which outcome was assigned to CC(=O)CC/C=C(\C)CC/C=C(\C)CC/C=C(\C)CCC=C(C)C in this test?
-1

What is the recorded call for this molecule in the test? CCCCCCCCCCCCCCCCN
-1

Which outcome was assigned to N#CCCCC(C#N)CCC#N (stereo not drawn) in this test?
-1

Given CCN(CCCCOC(=O)c1ccc(OC)c(OC)c1)C(C)Cc1ccc(OC)cc1 (stereo not drawn) , state the outcome it received in this test.
-1

Which outcome was entered for the molecule C=CCCC in this test?
-1

Please indicate how the test categorized Cc1c(Nc2ncccc2C(=O)O)cccc1C(F)(F)F .
-1

Lab log entry: CC(C)(O)C(=O)O — outcome as called in the assay?
-1

Status in this test for CC(=O)Nc1ccccc1O ?
-1

Field: outcome | Entry: O=C1c2ccccc2C(=O)C1c1ccc2cc(S(=O)(=O)O)cc(S(=O)(=O)O)c2n1
1

Would you mind telling me which call this test gave COc1ccc(/C=C/S(=O)(=O)NC(=O)c2ccc(C)cc2Cl)cc1 ?
-1

Could you please tell me the result logged for Oc1ccc(Oc2ccccc2)cc1 in this assay?
-1

Each molecule tested received a call. Report the one for C[C@H](CN1CCCC1)C(=O)c1ccc(C(F)(F)F)cc1 .
-1

What classification did CCCCCCCCCCCC(=O)OCC end up with in this test?
-1

State the result this test recorded for O=[N+]([O-])c1ccccc1CCO .
-1

Lab log entry: CCCCCCCCCC(C)C=O (stereo not drawn) — outcome as called in the assay?
-1

// return assay outcome for O=c1[nH][nH]c2ccccc12
-1

Dear colleague, could you share the recorded outcome for c1ccc(CCNc2nc(-c3ccccc3)cs2)cc1 when you have a moment?
-1

Field: outcome | Entry: CCCCOc1ccc(N)cc1
-1

# fetch the recorded call for C=CC(=O)OCCCCCCCCCC here
-1

# lookup: test call for Cc1ccc2ccccc2c1[N+](=O)[O-]
-1

Status in this test for COc1cc(CNC(=O)CCCC/C=C/C(C)C)ccc1O ?
-1

Look up the recorded call for C1CCN(CN2CCCCC2)CC1 in this test.
-1

Call for entry Clc1nc2ccccc2nc1Cl :
1

For CCOc1ccc(NC(C)=O)cc1N , which call appears in the assay record?
-1

All values here come from PubChem BioAssay (Tox21).
